species: Rattus norvegicus; assay: Ability to stimulate the production of cyclic AMP by rat retinal adenylate cyclase at a concentration of 10 uM; format: functional
Label Criterion met when Stimulation >= 40%; otherwise Criterion not met.

Would you say NCC(c1ccccc1)c1ccc(O)c(O)c1 (stereo not given) shows Stimulation at minimum 40%? Criterion met

Would you say NCCc1ccc(O)c(O)c1 shows Stimulation at minimum 40%? Criterion met

Would you say CC(CN)c1ccc(O)c(O)c1 (racemic) shows Stimulation at minimum 40%? Criterion not met

---

species: Rattus norvegicus; assay: Ability to stimulate the production of cyclic AMP by rat retinal adenylate cyclase at a concentration of 0.1 uM; type: functional
Please provide measured Stimulation for the entries that follow.
Respond with the bare value in %.

Sample C[C@H](CN)c1ccc(O)c(O)c1 ; Stimulation observed: 1.6

Sample NCC(c1ccccc1)c1ccc(O)c(O)c1 (stereo not given) ; Stimulation observed: 4.9

Sample CC(CN)c1ccc(O)c(O)c1 (single isomer, unassigned) ; Stimulation observed: 1.5

Sample NCCc1ccc(O)c(O)c1 ; Stimulation observed: 31.4

Sample CC(CN)c1ccc(O)c(O)c1 (racemic) ; Stimulation observed: 5.9
